Molecular target: T1, recombinant human PACAP/VIP R-2 receptor (human)
T1 chain: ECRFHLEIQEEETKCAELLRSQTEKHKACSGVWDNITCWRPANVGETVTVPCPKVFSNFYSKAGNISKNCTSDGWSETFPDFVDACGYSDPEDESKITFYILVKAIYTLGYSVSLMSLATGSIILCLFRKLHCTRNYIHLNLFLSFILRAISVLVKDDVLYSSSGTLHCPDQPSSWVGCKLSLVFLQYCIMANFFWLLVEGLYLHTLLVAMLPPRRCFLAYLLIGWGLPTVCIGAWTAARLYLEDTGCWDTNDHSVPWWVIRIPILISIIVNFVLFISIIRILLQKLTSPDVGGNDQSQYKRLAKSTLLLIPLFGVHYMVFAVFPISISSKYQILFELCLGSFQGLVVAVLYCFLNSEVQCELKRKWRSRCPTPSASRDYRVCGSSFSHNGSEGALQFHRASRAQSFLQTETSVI
Test: competitive displacement of 125I-PACAP-27 (44 pM) on intact CHL cells expressing the receptor
Where no end group is shown, it is not given here.

Binder	IC50, nM
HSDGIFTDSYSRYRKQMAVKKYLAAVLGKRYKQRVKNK (ligand, ends and bridges not checked) [PACAP-38 (pituitary adenylate cyclase activating polypeptide, 38-amino acid peptide)]	4.1
